Values were extracted from patent US20250170266A1.

- subject.of.test: hTLR7 (Homo sapiens, UniProt Q9NYK1)
- Sequence (Q9NYK1 27-1049): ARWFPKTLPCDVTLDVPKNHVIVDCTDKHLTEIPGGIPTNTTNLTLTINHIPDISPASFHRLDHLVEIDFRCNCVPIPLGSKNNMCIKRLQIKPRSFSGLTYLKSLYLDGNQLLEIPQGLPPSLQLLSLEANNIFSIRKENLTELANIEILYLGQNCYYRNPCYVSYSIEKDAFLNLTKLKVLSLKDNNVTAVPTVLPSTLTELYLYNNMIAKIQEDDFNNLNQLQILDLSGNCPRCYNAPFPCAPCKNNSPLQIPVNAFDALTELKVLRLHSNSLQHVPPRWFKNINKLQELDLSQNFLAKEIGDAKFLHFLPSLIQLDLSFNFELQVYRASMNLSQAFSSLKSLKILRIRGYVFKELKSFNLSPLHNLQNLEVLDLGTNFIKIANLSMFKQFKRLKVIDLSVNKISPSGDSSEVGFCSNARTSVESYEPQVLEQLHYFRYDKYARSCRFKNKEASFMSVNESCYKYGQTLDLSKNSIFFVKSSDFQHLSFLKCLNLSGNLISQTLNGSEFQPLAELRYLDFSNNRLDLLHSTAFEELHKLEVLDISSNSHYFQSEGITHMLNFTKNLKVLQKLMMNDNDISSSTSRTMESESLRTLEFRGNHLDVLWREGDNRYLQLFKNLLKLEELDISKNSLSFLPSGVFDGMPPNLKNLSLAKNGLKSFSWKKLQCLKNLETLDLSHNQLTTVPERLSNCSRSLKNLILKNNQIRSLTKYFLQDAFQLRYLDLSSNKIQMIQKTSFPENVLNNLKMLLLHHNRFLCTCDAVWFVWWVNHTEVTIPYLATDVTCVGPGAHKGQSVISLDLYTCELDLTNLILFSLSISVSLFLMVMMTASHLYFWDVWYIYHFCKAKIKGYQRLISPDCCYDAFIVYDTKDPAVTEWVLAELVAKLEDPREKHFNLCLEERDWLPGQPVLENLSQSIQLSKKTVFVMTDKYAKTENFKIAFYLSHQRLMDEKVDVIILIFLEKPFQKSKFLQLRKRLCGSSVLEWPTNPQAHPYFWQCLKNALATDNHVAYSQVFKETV
- protocol.details: Reporter Gene Assay (RGA), HEK-Blue hTLR7 reporter cells, SEAP readout
- study.conditions: overnight incubation, SEAP absorbance 620 nm
pEC50: −log10 of the molar value.
measure.name: pEC50

Answered examples (2):
compound	pEC50
CCCCOc1nc(N)c2nc(O)n(Cc3ccc(CN4CCC(N)CC4)cc3OC)c2n1	9.70
CCOc1nc(N)c2nc(O)n(Cc3ccc(CN4CCNCC4)nc3)c2n1	7.29

(P) CCOc1nc(N)c2nc(O)n(Cc3ccc(CN4CCNCC4)cc3F)c2n1
(Q) CCCCCNc1nc(N)c2nc(O)n(Cc3ccc(CNCCN4CCNCC4)cc3)c2n1
(R) CCOc1nc(N)c2nc(O)n(Cc3ccc(CNC4CC(F)(F)C4)cc3OC)c2n1
(S) CCCCOc1nc(N)c2nc(O)n(Cc3ccc(CCN4CCC(CCN)CC4)cc3OC)c2n1
(T) CCCCCNc1nc(N)nc2ccn(Cc3ccc(CN4CCN(CCNC(=O)CC(SC[C@@H](N)C(=O)O)C(=O)O)CC4)cc3OC)c12 (some centres unmarked) [Benchmark, reference compound]
Arrange by pEC50, high to low. A complete answer lists every label in the requested sequence.
P, T, R, S, Q
(P: 8.89, T: 7.57, R: 7.25, S: 6.84, Q: 5.76)

---

- subject.of.test: mTLR7 (Mus musculus, UniProt P58681)
- Sequence (P58681 27-1050): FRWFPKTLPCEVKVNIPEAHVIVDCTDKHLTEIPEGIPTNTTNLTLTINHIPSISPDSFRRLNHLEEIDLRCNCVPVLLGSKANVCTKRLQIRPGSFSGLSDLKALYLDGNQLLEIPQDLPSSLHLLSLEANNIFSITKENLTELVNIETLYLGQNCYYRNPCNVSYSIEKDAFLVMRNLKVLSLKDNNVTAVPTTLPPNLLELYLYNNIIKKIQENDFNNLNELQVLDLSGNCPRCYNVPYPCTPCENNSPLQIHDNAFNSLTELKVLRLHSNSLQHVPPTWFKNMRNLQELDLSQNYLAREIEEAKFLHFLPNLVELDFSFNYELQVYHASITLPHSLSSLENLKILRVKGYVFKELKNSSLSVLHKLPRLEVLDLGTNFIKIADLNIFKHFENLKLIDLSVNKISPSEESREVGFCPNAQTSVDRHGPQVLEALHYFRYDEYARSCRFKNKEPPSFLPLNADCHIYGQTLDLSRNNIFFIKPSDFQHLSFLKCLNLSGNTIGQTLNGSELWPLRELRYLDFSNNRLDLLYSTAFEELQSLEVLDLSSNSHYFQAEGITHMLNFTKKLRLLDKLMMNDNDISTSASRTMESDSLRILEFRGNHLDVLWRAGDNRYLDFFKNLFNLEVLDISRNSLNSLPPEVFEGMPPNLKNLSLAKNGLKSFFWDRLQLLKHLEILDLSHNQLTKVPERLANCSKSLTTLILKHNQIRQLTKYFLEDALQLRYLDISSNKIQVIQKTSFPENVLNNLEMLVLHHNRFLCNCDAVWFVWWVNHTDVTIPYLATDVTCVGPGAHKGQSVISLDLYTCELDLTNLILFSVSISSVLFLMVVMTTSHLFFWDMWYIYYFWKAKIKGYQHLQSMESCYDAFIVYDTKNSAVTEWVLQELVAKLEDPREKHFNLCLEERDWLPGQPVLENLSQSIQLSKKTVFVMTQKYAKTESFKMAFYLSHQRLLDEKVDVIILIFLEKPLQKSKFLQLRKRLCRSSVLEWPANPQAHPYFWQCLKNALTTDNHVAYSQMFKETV
- protocol.details: Reporter Gene Assay (RGA), HEK-Blue mTLR7 reporter cells, SEAP readout
- study.conditions: overnight incubation, SEAP absorbance 620 nm
measure.name: EC50 (µM)

The cases that follow already have their EC50 on record.
molecule	units.symbol	endpoint.result
CCCN(CCC)Cc1ccc(Cn2c(O)nc3c(N)nc(OCC)nc32)c(OC)c1 [Compound 125]	µM	0.0043
CCOc1nc(N)c2nc(O)n(Cc3ccc(CNCC(O)CN4CCOCC4)cc3OC)c2n1 (stereo not drawn) [Compound 136]	µM	1.71
CCCCOc1nc(N)c2nc(O)n(Cc3ccc(N4CCNCC4)nc3)c2n1 [Compound 167]	µM	0.0053

(P) CCCCCNc1nc(N)c2nc(O)n(Cc3ccc(CNCCN4CCNCC4)cc3)c2n1 [Compound 195]
(Q) CCOc1nc(N)c2nc(O)n(Cc3ccc(CN(CC(=O)O)CC(=O)O)cc3OC)c2n1 [Compound 120]
Given P and given Q , which shows the smaller recorded EC50? API: response body contains the label of the selected item.
P
(P: 0.127 µM, Q: 0.637 µM)

---

- subject.of.test: mTLR7 (Mus musculus, UniProt P58681)
- protocol.details: Reporter Gene Assay (RGA), HEK-Blue mTLR7 reporter cells, SEAP readout
- study.conditions: overnight incubation, SEAP absorbance 620 nm
pEC50: −log10 of the molar value.
measure.name: pEC50

Look over these answered cases.
chemical.string	pEC50
CCCCCNc1nc(N)c2nc(O)n(Cc3ccc(CNCC(C)(C)O)cc3)c2n1	7.69
CCOc1nc(N)c2nc(O)n(Cc3ccc(CNC4CCC4)cc3OC)c2n1	8.30

(P) CCCCCNc1nc(N)c2nc(O)n(Cc3ccc(CN(CC)CC)cc3)c2n1
(Q) CCOc1nc(N)c2nc(O)n(Cc3ccc(CNCCCCCC(=O)O)cc3OC)c2n1
(R) CCOc1nc(N)c2nc(O)n(Cc3ccc(CNCc4ccc(CNCc5ccc(CN)cc5)cc4)cc3OC)c2n1
(S) CCOc1nc(N)c2nc(O)n(Cc3ccc(CNCc4ccc(CN5CCOCC5)cc4)cc3OC)c2n1
(T) CCCCCNc1nc(N)c2nc(O)n(Cc3ccc(CNCCCCN)cc3)c2n1
Arrange items by their pEC50 values in increasing order. Answer by writing out the labels in the requested order.
Q, T, R, S, P
(Q: 5.80, T: 7.09, R: 7.54, S: 7.84, P: 9.00)

---

- subject.of.test: hTLR7 (Homo sapiens, UniProt Q9NYK1)
- protocol.details: Reporter Gene Assay (RGA), HEK-Blue hTLR7 reporter cells, SEAP readout
- study.conditions: overnight incubation, SEAP absorbance 620 nm
pEC50: −log10 of the molar value.
measure.name: pEC50

compound	pEC50
CCOc1nc(N)c2nc(O)n(Cc3ccc(CNCc4ccc(CN5CCC(NC(=O)OC(C)(C)C)CC5)cc4)cc3OC)c2n1 [Compound 143]	9.70
CCOc1nc(N)c2nc(O)n(Cc3ccc(CN4CCC(N)CC4)cc3OC)c2n1 [Compound 110]	6.95
CCOc1nc(N)c2nc(O)n(Cc3ccc(CNC4CCC4)cc3OC)c2n1 [Compound 108]	8.22
CCCCCNc1nc(N)c2nc(O)n(Cc3ccc(CNC4CCNCC4)cc3)c2n1 [Compound 194]	6.51

(1) CCCCCNc1nc(N)c2nc(O)n(Cc3ccc(CNC4CC(F)(F)C4)cc3)c2n1 [Compound 186]
(2) CCOc1nc(N)c2nc(O)n(Cc3ccc(CNCc4ccccc4)cc3OC)c2n1 [Compound 107]
(3) CCCCOc1nc(N)c2nc(O)n(Cc3ccc(CCCN4CCNCC4)cc3OC)c2n1 [Compound 173]
Arrange the 3 compounds from largest to smallest pEC50. Arrange the labels as the request states and list them.
3, 2, 1
(3: 9.70, 2: 7.89, 1: 6.34)

---

- subject.of.test: hTLR7 (Homo sapiens, UniProt Q9NYK1)
- protocol.details: Reporter Gene Assay (RGA), HEK-Blue hTLR7 reporter cells, SEAP readout
- study.conditions: overnight incubation, SEAP absorbance 620 nm
measure.name: EC50 (nM)

Examples from the recorded data:
molecule	subject.of.test	EC50 (nM)
CCCCOc1nc(N)c2nc(O)n(Cc3ccc(CNC)cc3OC)c2n1 [Compound 163]	hTLR7 (Homo sapiens, UniProt Q9NYK1)	0.7
CCCCCNc1nc(N)c2nc(O)n(Cc3ccc(CN4CCC(N)CC4)cc3)c2n1 [Compound 188]	hTLR7 (Homo sapiens, UniProt Q9NYK1)	351
CCCCOc1nc(N)c2nc(O)n(Cc3ccc(CN4CCNCC4)cc3OC)c2n1 [Compound 154]	hTLR7 (Homo sapiens, UniProt Q9NYK1)	0.2
CCOc1nc(N)c2nc(O)n(Cc3ccc(CN4CCN(C(=O)CCOCCOCCOCCNC(=O)CC(SC[C@@H](N)C(=O)O)C(=O)O)CC4)cc3OC)c2n1 (stereo partly shown) [Compound 149]	hTLR7 (Homo sapiens, UniProt Q9NYK1)	520

(I) CCCCOc1nc(N)c2nc(O)n(Cc3ccc(CN4CCC5(CCNCC5)CC4)cc3OC)c2n1 [Compound 157]
(II) CCCN(CCC)Cc1ccc(Cn2c(O)nc3c(N)nc(OCC)nc32)c(OC)c1 [Compound 125]
(III) CCOc1nc(N)c2nc(O)n(Cc3ccc(CNCCCN4CCNCC4)cc3OC)c2n1 [Compound 131]
I would appreciate it if you could sort these 3 molecules by EC50, starting from the smallest number. List the labels according to the requested ordering.
II, I, III

(I) CCOc1nc(N)c2nc(O)n(Cc3ccc(CNCCCCN)cc3OC)c2n1 [Compound 106]
(II) CCNCc1ccc(Cn2c(O)nc3c(N)nc(OCC)nc32)c(OC)c1 [Compound 124]
(III) CCCCCNc1nc(N)c2nc(O)n(Cc3ccc(CN(CC)CC)cc3)c2n1 [Compound 185]
(IV) CCOc1nc(N)c2nc(O)n(Cc3ccc(CNCCC(=O)N[C@@H](Cc4c[nH]cn4)C(=O)O)cc3OC)c2n1 [Compound 116]
(V) CCCN(CCC)Cc1ccc(CNCc2ccc(Cn3c(O)nc4c(N)nc(OCC)nc43)c(OC)c2)cc1 [Compound 141]
Highest EC50 first, then in falling order down to the smallest. Give the labels in the order requested.
I, IV, III, II, V

(P) CCOc1nc(N)c2nc(O)n(Cc3ccc(CNCc4ccc(CN)cc4)cc3OC)c2n1 [Compound 105]
(Q) CCOc1nc(N)c2nc(O)n(Cc3ccc(CNCCCCCC(=O)O)cc3OC)c2n1 [Compound 115]
(R) CCCCOc1nc(N)c2nc(O)n(Cc3ccc(CCN4CCC(N)CC4)cc3OC)c2n1 [Compound 181]
Rank ascending by EC50. Labels, requested order.
R, P, Q
